# SYSTEM NAME: human androgen receptor (Homo sapiens, UniProt P10275)
# Construct: expressed in transfected cells
# Sequence (P10275 1-920): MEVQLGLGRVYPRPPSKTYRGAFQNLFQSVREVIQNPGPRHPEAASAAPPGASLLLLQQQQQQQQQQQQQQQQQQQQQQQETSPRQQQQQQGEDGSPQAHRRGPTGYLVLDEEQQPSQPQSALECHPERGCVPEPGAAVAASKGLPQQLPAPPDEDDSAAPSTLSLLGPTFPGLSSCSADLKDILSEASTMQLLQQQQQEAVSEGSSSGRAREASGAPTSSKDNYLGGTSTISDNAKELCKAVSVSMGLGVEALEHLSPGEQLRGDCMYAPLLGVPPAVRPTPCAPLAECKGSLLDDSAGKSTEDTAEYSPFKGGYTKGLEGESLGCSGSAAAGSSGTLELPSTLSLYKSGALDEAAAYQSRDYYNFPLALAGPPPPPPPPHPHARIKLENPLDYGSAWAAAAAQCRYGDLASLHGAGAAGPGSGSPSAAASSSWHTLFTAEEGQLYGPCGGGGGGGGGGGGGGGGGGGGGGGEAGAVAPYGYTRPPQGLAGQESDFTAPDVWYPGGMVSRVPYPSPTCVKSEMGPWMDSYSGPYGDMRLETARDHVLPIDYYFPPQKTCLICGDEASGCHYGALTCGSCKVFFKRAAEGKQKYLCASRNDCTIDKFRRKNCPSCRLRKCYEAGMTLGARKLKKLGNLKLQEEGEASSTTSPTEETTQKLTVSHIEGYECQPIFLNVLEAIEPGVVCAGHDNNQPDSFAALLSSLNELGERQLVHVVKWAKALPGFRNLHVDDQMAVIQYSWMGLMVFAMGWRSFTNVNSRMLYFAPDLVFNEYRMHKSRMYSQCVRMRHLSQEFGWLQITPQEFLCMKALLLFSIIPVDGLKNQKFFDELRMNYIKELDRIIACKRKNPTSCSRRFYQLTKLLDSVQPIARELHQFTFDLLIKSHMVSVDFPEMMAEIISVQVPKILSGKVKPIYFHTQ
# TEST DESCRIPTION: Investigation of antagonist effects: androgen receptor reporter gene (MMTV-luciferase) assay in 11A11B2 cells with 0.1 nmol/L DHT
# Type: cell-based
ENDPOINT: IC50 (nM)
Note: unit nM is implicit; provide only the numeric part.

Req: What IC50 value was documented for this compound, CC1(C)C(=O)N(c2ccc(C#N)c(Cl)c2)C(=S)N1CCCS(N)(=O)=O ?
Resp: 200

###

# SYSTEM NAME: human androgen receptor (Homo sapiens, UniProt P10275)
# Construct: expressed in transfected cells
# TEST DESCRIPTION: Investigation of antagonist effects: androgen receptor reporter gene (MMTV-luciferase) assay in 11A11B2 cells with 0.1 nmol/L DHT
# Assay type: cell-based
# TEST PARAMETERS: 11A11B2 cells, 0.1 nmol/L DHT, 48 hours; agonist transcription activity rate of Test Example 1 subtracted; read-out: IC50
Each entry below carries its recorded IC50.
Note: unit nM is implicit; provide only the numeric part.

Req: What IC50 value was documented for this molecule, COc1cc(N2C(=O)C(C)(C)N(CCCS(N)(=O)=O)C2=S)ccc1C#N [Example 2] ?
Resp: 300

Req: Now try CC1(C)C(=O)N(c2ccc(C#N)c(Cl)c2)C(=S)N1CCS(N)(=O)=O [Example 28] .
Resp: 400

Req: Now try CC1(C)C(=O)N(c2ccc(C#N)c(Cl)c2)C(=S)N1CCCCCS(N)(=O)=O [Example 27] .
Resp: 400

Now examine the next entry.
Req: What IC50 value was documented for this molecule, CC1(C)C(=O)N(c2ccc(C#N)c(Cl)c2)C(=S)N1CCCCS(N)(=O)=O [Example 26] ?
Resp: 900

###

Each entry below carries its recorded EC5.
# SYSTEM NAME: human androgen receptor (Homo sapiens)
# Construct: expressed in transfected cells
# TEST DESCRIPTION: Investigation of agonist effects: androgen receptor reporter gene (MMTV-luciferase) assay in 11A11B2 cells
# Format: cell-based
# TEST PARAMETERS: compound concentration showing a transcription activity of 5% (0.1 nmol/L DHT = 100%, assay medium alone = 0%), 48 hours

Req: What EC5 value was documented for this molecule, CC1(C)C(=O)N(c2ccc(C#N)c(Cl)c2)C(=S)N1CCCCCS(N)(=O)=O ?
Resp: >10 µM

Req: Now try CC(=O)NCCN1C(=S)N(c2ccc(C#N)c(C(F)(F)F)c2)C(=O)C1(C)C [Comparative Example 2, reference compound] .
Resp: 3 µM

Req: Now try CC1(C)C(=O)N(c2ccc(C#N)c(Cl)c2)C(=S)N1CCCCS(N)(=O)=O .
Resp: >10 µM

Req: Now try CN1C(=S)N(c2ccc(C#N)c(C(F)(F)F)c2)C(=O)C1(C)C [Comparative Example 1, reference compound] .
Resp: 8e-05 µM

***
Req: What EC5 value was documented for this molecule, CC1(C)C(=O)N(c2ccc(C#N)c(Cl)c2)C(=S)N1CCS(N)(=O)=O ?
Resp: >10 µM

###

Each entry below carries its recorded EC5.
# SYSTEM NAME: human androgen receptor (Homo sapiens)
# Construct: expressed in transfected cells
# Sequence (P10275 1-920): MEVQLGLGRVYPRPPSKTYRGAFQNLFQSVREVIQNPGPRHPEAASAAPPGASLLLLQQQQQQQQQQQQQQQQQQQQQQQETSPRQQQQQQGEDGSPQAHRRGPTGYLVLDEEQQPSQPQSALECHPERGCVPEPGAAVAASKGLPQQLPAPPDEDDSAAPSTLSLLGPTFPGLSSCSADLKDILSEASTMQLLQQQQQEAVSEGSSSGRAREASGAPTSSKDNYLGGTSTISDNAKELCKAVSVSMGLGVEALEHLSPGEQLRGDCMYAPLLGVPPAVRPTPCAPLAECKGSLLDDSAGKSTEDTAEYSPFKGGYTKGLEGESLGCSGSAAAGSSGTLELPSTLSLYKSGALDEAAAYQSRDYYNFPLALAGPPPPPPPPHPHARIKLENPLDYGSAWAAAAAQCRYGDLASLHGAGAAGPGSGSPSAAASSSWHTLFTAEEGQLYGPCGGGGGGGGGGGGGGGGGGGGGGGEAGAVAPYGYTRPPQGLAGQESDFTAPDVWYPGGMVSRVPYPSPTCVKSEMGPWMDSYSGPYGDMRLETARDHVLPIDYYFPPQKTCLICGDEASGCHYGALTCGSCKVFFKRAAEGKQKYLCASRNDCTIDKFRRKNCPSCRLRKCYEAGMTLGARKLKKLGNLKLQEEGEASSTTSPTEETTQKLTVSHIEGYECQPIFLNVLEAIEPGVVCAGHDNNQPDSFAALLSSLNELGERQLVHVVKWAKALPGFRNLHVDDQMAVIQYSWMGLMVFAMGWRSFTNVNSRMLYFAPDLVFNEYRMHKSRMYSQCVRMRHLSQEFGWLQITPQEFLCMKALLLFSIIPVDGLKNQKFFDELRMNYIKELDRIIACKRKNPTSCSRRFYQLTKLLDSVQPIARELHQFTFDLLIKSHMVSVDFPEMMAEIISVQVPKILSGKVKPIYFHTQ
# TEST DESCRIPTION: Investigation of agonist effects: androgen receptor reporter gene (MMTV-luciferase) assay in 11A11B2 cells
# Assay type: cell-based
# TEST PARAMETERS: compound concentration showing a transcription activity of 5% (0.1 nmol/L DHT = 100%, assay medium alone = 0%), 48 hours

# annotated cases, reported EC5 shown
Req: What EC5 value was documented for this compound, COc1cc(N2C(=O)C(C)(C)N(CCCS(N)(=O)=O)C2=S)ccc1C#N ?
Resp: >10 µM

Req: Now try CC1(C)C(=O)N(c2ccc(C#N)c(Cl)c2)C(=S)N1CCCS(N)(=O)=O .
Resp: >10 µM

Now examine the next entry.
Req: What EC5 value was documented for this compound, CC(C)(O)C(=O)Nc1ccc([N+](=O)[O-])c(C(F)(F)F)c1 [Comparative Example 4, hydroxyflutamide] ?
Resp: 0.01 µM
